biological target: Low molecular weight protein-tyrosine phosphatase A (Mycobacterium tuberculosis); assay: Inhibition of recombinant Mycobacterium tuberculosis H37Rv MptpA using pNPP as substrate at 50 uM incubated for 10 mins and measured by spectrophotometric method relative to control
A collection of molecules and their measured inhibition
# value in %; strip the unit string

| STRUCTURE SMILES | inhibition (%) |
| --- | --- |
| O=C1NC(=S)NC(=O)C1=Cc1ccc(OCc2ccc(Cl)cc2)cc1-c1cc(Cl)c(O)c(Cl)c1 | 49 |

What value of inhibition has been reported for the following molecule? O=C1NC(=S)NC(=O)C1=Cc1cc(-c2ccc(C(F)(F)F)cc2)ccc1OCc1ccc(Cl)cc1
74.2

Okay, and O=C1NC(=S)NC(=O)C1=Cc1cc(OCc2ccc(Cl)cc2)cc(-c2cc(Cl)c(O)c(Cl)c2)c1 ?
39.7
